Molecular target: MASP-2 (CCP1-CCP2-SP) (Homo sapiens (Human), UniProt O00187)
Sequence (O00187 445-686): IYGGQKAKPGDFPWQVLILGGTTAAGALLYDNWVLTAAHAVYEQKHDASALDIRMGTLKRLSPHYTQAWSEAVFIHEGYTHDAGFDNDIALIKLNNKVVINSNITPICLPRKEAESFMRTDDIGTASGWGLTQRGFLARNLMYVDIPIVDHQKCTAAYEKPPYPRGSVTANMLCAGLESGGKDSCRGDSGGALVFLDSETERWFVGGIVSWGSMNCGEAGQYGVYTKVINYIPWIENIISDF
Sequence (O00187 287-444 partner): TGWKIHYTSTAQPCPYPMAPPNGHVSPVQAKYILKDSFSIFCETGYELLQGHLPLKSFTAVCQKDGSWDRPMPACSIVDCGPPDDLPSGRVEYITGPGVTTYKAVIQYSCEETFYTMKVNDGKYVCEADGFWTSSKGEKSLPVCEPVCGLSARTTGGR
Assay: Enzymatic Assay for MASP-2 (fluorogenic substrate)
Settings: fluorogenic substrate based on C2 cleavage site; room temperature; 20 mM HEPES pH 7.4, 140 mM NaCl, 0.1% Tween 20; 20 min
pKi: −log10 of the molar value.
property_label: pKi

C[C@H](NC(=O)[C@H]1C[C@@H](c2ccccc2)CCN1CCC(=O)O)C(=O)NCc1ccc(C(=N)N)cc1 = > 6.30
C[C@H](NC(=O)[C@H]1C[C@@H](c2ccccc2)CCN1)C(=O)NCc1ccc(/C(N)=N/O)cc1 = 5.60 to 6.30

Report pKi for `N=C(NC(=O)OCc1ccccc1)c1ccc(CNC(=O)[C@@H]2CCN2C(=O)[C@H]2C[C@@H](c3ccccc3)CCN2)cc1` tested on MASP-2 (CCP1-CCP2-SP) (Homo sapiens (Human), UniProt O00187).
5.60 to 6.30

###

Molecular target: MASP-2 (CCP1-CCP2-SP) (Homo sapiens (Human))
Assay: Enzymatic Assay for MASP-2 (fluorogenic substrate)
Details: fluorogenic substrate based on C2 cleavage site; room temperature; 20 mM HEPES pH 7.4, 140 mM NaCl, 0.1% Tween 20; 20 min
pKi: −log10 of the molar value.
property_label: pKi

Worked cases, pKi given:
CCN1CC[C@H](c2ccccc2)C[C@@H]1C(=O)N[C@@H](C)C(=O)NCc1ccc(C(=N)NC(=O)OCc2ccccc2)cc1 [Compound I-20] = 5.00 to 5.60
C[C@H](NC(=O)[C@H]1C[C@@H](c2ccccc2)CCN1)C(=O)NCc1ccc(/C(N)=N/O)s1 [Compound I-24] = > 6.30

Next item in the queue.
Report pKi for CC(C)[C@H](N)C(=O)O/N=C(\N)c1ccc(CNC(=O)[C@H](C)NC(=O)[C@H]2C[C@@H](c3ccccc3)CCN2)cc1 [Compound I-7] tested on MASP-2 (CCP1-CCP2-SP) (Homo sapiens (Human)).
> 6.30
